Data credit: patent US9120770B2

pEC50: −log10 of the molar value.
As a worked illustration, we turn to pEC50 data collected for PDE4D3 (Homo sapiens, UniProt Q08499).

These recorded examples may help you get a feel for the data.
1) COc1ncc(Cn2cncn2)cc1-c1cncc(C)c1 [Example 6] ... < 5.00
2) COc1ncc(Cc2cnc(N)nc2)cc1-c1cccc(Cl)c1 [Example 25] ... > 7.00
3) COc1ncc(Cn2cnc(C)n2)cc1-c1cccc(Cl)c1 [Example 143] ... > 7.00
4) COc1ncc(Cn2ccnc2)cc1-c1cccc(Cl)c1 [Example 173] ... > 7.00
5) FC(F)Oc1ncc(Cc2cnc(NCC(F)(F)F)nc2)cc1-c1cccc(Cl)c1 [Example 94] ... 6.00 to 7.00
6) COc1ncc(Cn2cnnc2C)cc1-c1cccc(Cl)c1 [Example 138] ... 5.00 to 6.00
7) CCOc1ncc(Cn2cc(C(F)F)nn2)cc1-c1cccc(OC(F)F)c1 [Example 269] ... 6.00 to 7.00
8) CCOc1ncc(Cn2cnc(N)n2)cc1-c1cccc(OC(F)F)c1 [Example 226] ... > 7.00
9) CCOc1ncc(Cn2cnc(CO)n2)cc1-c1cccc(OC(F)F)c1 [Example 201] ... > 7.00
10) COc1ncc(Cn2cncn2)cc1-c1cccc(C(F)F)c1 [Example 144] ... > 7.00

Sample CCOc1ncc(Cc2cnc(C#N)nc2)nc1-c1cccc(OC(F)F)c1 [Example 1] — what was its pEC50?
> 7.00

Reported pEC50 for OCc1cncn1Cc1cnc(OC(F)F)c(-c2cccc(Cl)c2)c1 [Example 273] : what is it?
5.00 to 6.00

Quick one: pEC50 for COc1ncc(Cc2ccc(C(C)(C)O)cc2)cc1-c1cccc(Cl)c1 [Example 250] ?
6.00 to 7.00

What does the data say about its pEC50? Entry: COC(=O)c1ncn(Cc2cnc(OC)c(-c3cccc(Cl)c3)n2)n1 [Example 127]
5.00 to 6.00

Reported pEC50 for COc1ncc(Cc2cc(C)nc(C)c2)cc1-c1cccc(Cl)c1 [Example 61] : what is it?
5.00 to 6.00

Record request: pEC50 value, item COC(=O)c1ncnn1Cc1cnc(OC)c(-c2cccc(Cl)c2)n1 [Example 195]
5.00 to 6.00

I would be grateful if you could share the reported pEC50 for CCOc1ncc(Cn2cnc(C3CC3)n2)nc1-c1cccc(OC(F)F)c1 [Example 186] .
5.00 to 6.00

Tell me the measured pEC50 of COc1ncc(Cc2cnc(N(C)C)nc2)cc1-c1cccc(Cl)c1 [Example 83] , please.
6.00 to 7.00

Value lookup for pEC50; key = FC(F)Oc1ncc(Cn2cnnn2)cc1-c1cccc(Cl)c1 [Example 161]
6.00 to 7.00

Returns the measured pEC50 for the input compound. Input: Cc1noc(C)c1Cc1cnc(OC(F)F)c(-c2cccc(Cl)c2)c1 [Example 99]
5.00 to 6.00

Item under review: COc1ncc(Cn2cc(CO)cn2)cc1-c1cccc(OC(F)F)c1 [Example 272] . Reported pEC50?
> 7.00

---

Listing of entries alongside the reported pEC50.
biological target: UniProt Q08499
pEC50: −log10 of the molar value.

What pEC50 value was documented for this molecule, NC(=O)c1ncc(Cc2cnc(OC(F)F)c(-c3cccc(Cl)c3)c2)cn1 ?
6.00 to 7.00

Quick check: pEC50 of CCOc1ncc(Cc2cnc(C(N)=O)nc2)nc1-c1cccc(OC(F)F)c1 ?
> 7.00

# input molecule: COc1ncc(Cc2cnoc2)nc1-c1cccc(Cl)c1 ; wanted: its pEC50
> 7.00

Name the recorded pEC50 for COc1ncc(Cc2ccc(CN)cc2)cc1-c1cccc(Cl)c1 .
6.00 to 7.00

---

target: PDE4D3 (Homo sapiens, UniProt Q08499)
Sequence (Q08499 1-673 isoform Q08499-2): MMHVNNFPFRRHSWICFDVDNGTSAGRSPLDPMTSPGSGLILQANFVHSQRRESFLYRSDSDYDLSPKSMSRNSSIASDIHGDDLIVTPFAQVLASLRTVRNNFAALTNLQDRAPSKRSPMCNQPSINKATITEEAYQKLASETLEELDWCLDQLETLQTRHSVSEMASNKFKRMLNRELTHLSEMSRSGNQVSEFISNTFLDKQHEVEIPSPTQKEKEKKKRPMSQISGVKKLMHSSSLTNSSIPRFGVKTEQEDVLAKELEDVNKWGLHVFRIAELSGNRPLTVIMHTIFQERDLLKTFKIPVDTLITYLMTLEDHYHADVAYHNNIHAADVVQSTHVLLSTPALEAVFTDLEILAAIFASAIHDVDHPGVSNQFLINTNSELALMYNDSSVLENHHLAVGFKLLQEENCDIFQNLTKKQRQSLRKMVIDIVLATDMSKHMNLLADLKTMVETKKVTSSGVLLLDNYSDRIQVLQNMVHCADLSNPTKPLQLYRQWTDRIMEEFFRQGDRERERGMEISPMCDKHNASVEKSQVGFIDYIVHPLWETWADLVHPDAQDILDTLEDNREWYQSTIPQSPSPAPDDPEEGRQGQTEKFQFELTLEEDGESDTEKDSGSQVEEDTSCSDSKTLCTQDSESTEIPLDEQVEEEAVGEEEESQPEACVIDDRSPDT
property.name: EC50

1. COc1ncc(Cn2cccn2)cc1-c1cccc(Cl)c1 [Example 145] ... < 100 nM
2. COc1ncc(Cc2cnc(NC3CC3)nc2)nc1-c1cccc(Cl)c1 [Example 57] ... 100 to 1000 nM
3. CCOc1ncc(Cn2cnc([N+](=O)[O-])n2)nc1-c1cccc(OC(F)F)c1 [Example 193] ... 1000 to 10000 nM
4. COc1ncc(Cc2ccc(F)cc2)cc1-c1cccc(Cl)c1 [Example 88] ... 100 to 1000 nM
5. CCOc1ncc(Cn2cnc(C)n2)nc1-c1cccc(OC(F)F)c1 [Example 185] ... < 100 nM
6. CCOc1cccc(-c2cc(Cn3cnc(CO)n3)cnc2OC(F)F)c1 [Example 204] ... < 100 nM
7. CCOc1ncc(Cn2cc(CO)nn2)nc1-c1cccc(OC(F)F)c1 [Example 265] ... 100 to 1000 nM
8. NC(=O)Cc1ccc(Cc2cnc(OC(F)F)c(-c3cccc(Cl)c3)c2)cc1 [Example 246] ... < 100 nM
9. COc1ncc(Cn2cnc(N)n2)cc1-c1cccc(F)c1 [Example 220] ... 100 to 1000 nM
10. O=C(O)c1ccc(Cc2cnc(OC(F)F)c(-c3cccc(Cl)c3)c2)cn1 [Example 54] ... 1000 to 10000 nM

What value of EC50 has been recorded for this entry: COc1ncc(Cn2cncn2)cc1-c1cccc(OC(F)(F)F)c1 [Example 137]
100 to 1000 nM

Which EC50 is listed for COc1ncc(Cc2cnc(C(N)=O)nc2)nc1-c1cccc(Cl)c1 [Example 123] ?
< 100 nM

---

pEC50: −log10 of the molar value.
Read-out record for PDE4D3 (Homo sapiens): pEC50

Worked examples follow.
1. COc1ncc(Cn2cc(Cl)cn2)cc1-c1cccc(OC(F)F)c1 ... 6.00 to 7.00
2. COc1ncc(Cn2cccn2)nc1-c1cccc(Cl)c1 ... 5.00 to 6.00
3. CC(C)Oc1ccc(Cc2cnc(OC(F)F)c(-c3cccc(Cl)c3)c2)cn1 ... 5.00 to 6.00
4. COc1ncc(Cn2cc([N+](=O)[O-])cn2)nc1-c1cccc(Cl)c1 ... 5.00 to 6.00
5. COc1ncc(Cc2cnc(NCC(F)(F)F)nc2)cc1-c1cccc(Cl)c1 ... > 7.00

Any idea what pEC50 came out for COc1ncc(Cc2cnc(NC(C)C)nc2)cc1-c1cccc(Cl)c1 on PDE4D3 (Homo sapiens)?
5.00 to 6.00

// lookup pEC50 | system=PDE4D3 (Homo sapiens) | key= COc1ncc(Cn2cnc(N)n2)cc1-c1cccc(C#N)c1
6.00 to 7.00

Test system PDE4D3 (Homo sapiens); read-out pEC50; what value for FC(F)Oc1ncc(Cn2cnc(C(F)F)n2)cc1-c1cccc(Cl)c1 ?
6.00 to 7.00

PDE4D3 (Homo sapiens) / pEC50 / CCOC(=O)C1(c2ccc(Cc3cnc(OC(F)F)c(-c4cccc(Cl)c4)c3)cc2)CC1 : value?
5.00 to 6.00

Give recorded pEC50 with PDE4D3 (Homo sapiens) for the following molecule: COc1ncc(Cc2cnc(Cl)nc2)cc1-c1cccc(Cl)c1
6.00 to 7.00

Given the entry COc1ncc(Cn2nccc2N)cc1-c1cccc(OC(F)F)c1 , what pEC50 was observed with PDE4D3 (Homo sapiens)?
6.00 to 7.00

Request: pEC50, test system PDE4D3 (Homo sapiens), entry COc1ncc(Cn2cc(NC(C)=O)cn2)cc1-c1cccc(Cl)c1
5.00 to 6.00

Enter reported pEC50 observed with PDE4D3 (Homo sapiens) for COc1ncc(Cn2cnc(C(N)=O)n2)cc1-c1cccc(Cl)c1
5.00 to 6.00

// fetch PDE4D3 (Homo sapiens) pEC50 for COc1cccc(-c2cc(Cn3cncn3)cnc2OC)n1
< 5.00

---

This section lists EC50 readings for PDE4D3 (Homo sapiens, UniProt Q08499).

Answered examples (6):
1. Cc1ccc(Cc2cnc(OC(F)F)c(-c3cccc(Cl)c3)c2)cn1 ... < 100 nM
2. FC(F)Oc1ncc(Cc2cnoc2)cc1-c1cccc(Cl)c1 ... 100 to 1000 nM
3. NCc1cncc(Cc2cnc(OC(F)F)c(-c3cccc(Cl)c3)c2)c1 ... < 100 nM
4. OCc1ncn(Cc2cnc(OC(F)F)c(-c3ccnc(OC(F)F)c3)c2)n1 ... 100 to 1000 nM
5. COc1ncc(Cn2cc(Cl)cn2)cc1-c1cccc(Cl)c1 ... 100 to 1000 nM
6. Nc1ncc(Cc2cnc(OC(F)F)c(-c3cccc(OC4COC4)c3)c2)cn1 ... 100 to 1000 nM

Can you look up EC50 on PDE4D3 (Homo sapiens, UniProt Q08499) for CCOc1ncc(Cn2cnc(C(=O)OC)n2)nc1-c1cccc(Cl)c1 ?
1000 to 10000 nM

Item CCOc1ncc(Cn2cnc(C(F)(F)F)n2)nc1-c1cccc(OC(F)F)c1 with PDE4D3 (Homo sapiens, UniProt Q08499) - EC50?
1000 to 10000 nM

So what EC50 did COc1ncc(Cn2cnc(C(C)(C)O)n2)cc1-c1cccc(Cl)c1 get with PDE4D3 (Homo sapiens, UniProt Q08499)?
1000 to 10000 nM
